The measured values listed here are drawn from the supplement of paper PMC4466140.

Biological target: CaBzz1-D1
Assay: SPOT peptide array binding signal intensity (averaged, normalized) (arbitrary units (background-subtracted, floor 0; scale differs between SH3 domains)); higher = stronger binding of the SH3 domain to the peptide
So I've got a bunch of binders here, and I need their SPOT peptide array binding signal intensity values.
Enter the number alone.

Would you kindly share the measured SPOT peptide array binding signal intensity for `PPLPRAPPVPPATFE` ?
243

Would you kindly share the measured SPOT peptide array binding signal intensity for `NHSRSLFSLPGNQQS` ?
5.5

Would you kindly share the measured SPOT peptide array binding signal intensity for `KKAPPPVVKPKPRNF` ?
1220

Would you kindly share the measured SPOT peptide array binding signal intensity for `RPVPPPPPMRTTTEG` ?
3990

Would you kindly share the measured SPOT peptide array binding signal intensity for `SAPDIPPRSPNRNAH` ?
85

Would you kindly share the measured SPOT peptide array binding signal intensity for `NRLRKRLNLPSEISI` ?
10

Would you kindly share the measured SPOT peptide array binding signal intensity for `VFQFQMPTTPISTKM` ?
152

Would you kindly share the measured SPOT peptide array binding signal intensity for `KMSRSPPRPPSLKII` ?
1880

Would you kindly share the measured SPOT peptide array binding signal intensity for `LLLLFVPDSPYDPAI` ?
43.5

Would you kindly share the measured SPOT peptide array binding signal intensity for `YHSRRHPLALGFKYV` ?
64

Would you kindly share the measured SPOT peptide array binding signal intensity for `GPPPPLPPPLFPSSS` ?
93

Would you kindly share the measured SPOT peptide array binding signal intensity for `WRPRIVPILPYITRL` ?
49.5

Would you kindly share the measured SPOT peptide array binding signal intensity for `LPMNIQPDLPPRKIM` ?
290

Would you kindly share the measured SPOT peptide array binding signal intensity for `YSRKKLPVVLSKMTL` ?
197

Would you kindly share the measured SPOT peptide array binding signal intensity for `KNPRRQLQIPRQQPS` ?
84
